Test: Volume of distribution at steady state in male Sprague-Dawley rat at 0.1 mg/kg, iv measured upto 8 hrs by LC-MS/MS analysis
Format: ADME, organism-based
Settings: in vivo
RESULT_TYPE: Vdss (L/kg)

Reference set (4 entries):
INSERT INTO results (given_smiles, units_text, numeric_readout) VALUES
  ('CCc1oc2cccc(Br)c2c1C(=O)c1cc(I)c(O)c(I)c1', 'L/kg', 0.113),
  ('O=C(O)c1ccc2nc(-c3cc(Cl)cc(Cl)c3)oc2c1', 'L/kg', 0.311),
  ('CCc1oc2cccc(C)c2c1C(=O)c1cc(I)c(O)c(I)c1', 'L/kg', 0.123),
  ('CCc1oc2cccc(I)c2c1C(=O)c1cc(I)c(O)c(I)c1', 'L/kg', 0.153);

a = CCc1oc2cccc(Cl)c2c1C(=O)c1cc(I)c(O)c(I)c1
b = CCc1oc2c(Cl)ccc(Cl)c2c1C(=O)c1cc(I)c(O)c(I)c1
Sort a and b by Vdss descending and give the first. Selection: enter the item's label. b
(b: 0.269 L/kg, a: 0.112 L/kg)

---

Target: Transthyretin (Homo sapiens, UniProt P02766)
Test: Binding affinity to TTR in human plasma assessed as target occupancy incubated for 6 hrs in presence of E)-S-phenyl 3-(4-hydroxy-3,5-dimethyistyryl)benzothioate by fluorescence based competitive binding assay
RESULT_TYPE: EC50 (µM)
Kindly answer with a numeric value in µM, unit omitted.

So, CCc1oc2ccccc2c1C(=O)c1cc(I)c(O)c(I)c1 ? Its EC50 was 8.9

---

Biological target: Transthyretin (Homo sapiens, UniProt P02766, V50M)
Test: Binding affinity to TTR V30M mutant (unknown origin) assessed as dissociation constant by ITC analysis
RESULT_TYPE: pKd
// pKd here means minus log10 of the molar concentration (mol/L)

So, CCc1oc2ccccc2c1C(=O)c1cc(I)c(O)c(I)c1 ? Its pKd was 7.11
